IC50 by entry:
target: Histone deacetylase 1 (Homo sapiens); experiment: Inhibition of HDAC1 in human HeLa cell nuclear extract using Fluor de Lys as substrate after 15 mins by fluorometric analysis
Sequence (Q13547 whole entry): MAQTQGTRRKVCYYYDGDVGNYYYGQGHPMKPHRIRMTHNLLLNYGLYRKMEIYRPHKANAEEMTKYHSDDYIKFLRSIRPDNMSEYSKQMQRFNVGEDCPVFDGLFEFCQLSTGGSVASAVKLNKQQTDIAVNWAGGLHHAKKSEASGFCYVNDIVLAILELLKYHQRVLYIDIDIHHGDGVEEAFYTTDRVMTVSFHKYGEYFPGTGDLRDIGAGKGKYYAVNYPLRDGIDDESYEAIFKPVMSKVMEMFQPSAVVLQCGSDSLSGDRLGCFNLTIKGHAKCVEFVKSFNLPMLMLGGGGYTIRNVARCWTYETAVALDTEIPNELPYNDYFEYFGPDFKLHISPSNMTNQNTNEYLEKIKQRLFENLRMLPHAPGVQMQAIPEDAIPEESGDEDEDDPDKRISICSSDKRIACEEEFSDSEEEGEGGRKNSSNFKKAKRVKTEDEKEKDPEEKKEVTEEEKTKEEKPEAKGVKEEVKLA
Entry rule: numbers only, all in nM.

A selection of reference data follows.
{"Smiles Repr": "COc1cccc2c1C(=O)c1c(O)c3c(c(O)c1C2=O)C[C@@](O)(C(C)=O)C[C@@H]3O[C@H]1C[C@H](NCc2ccc(-c3cn(CCCCCCCC(=O)NO)nn3)cc2)[C@H](O)[C@H](C)O1", "Observation Type": "IC50", "Display Unit": "nM", "Value Reported": 11}
{"Smiles Repr": "COc1cccc2c1C(=O)c1c(O)c3c(c(O)c1C2=O)C[C@@](O)(C(C)=O)C[C@@H]3O[C@H]1C[C@H](NCc2ccc(-c3cn(CCCCCCC(=O)NO)nn3)cc2)[C@H](O)[C@H](C)O1", "Observation Type": "IC50", "Display Unit": "nM", "Value Reported": 8}
{"Smiles Repr": "COc1cccc2c1C(=O)c1c(O)c3c(c(O)c1C2=O)C[C@@](O)(C(C)=O)C[C@@H]3O[C@H]1C[C@H](NCc2ccc(NC(=O)CCCCCCC(=O)NO)cc2)[C@H](O)[C@H](C)O1", "Observation Type": "IC50", "Display Unit": "nM", "Value Reported": 47}

Task: Name the reported IC50 value associated with the compound COc1cccc2c1C(=O)c1c(O)c3c(c(O)c1C2=O)C[C@@](O)(C(C)=O)C[C@@H]3O[C@H]1C[C@H](NCc2ccc(-c3cn(CCCCC(=O)NO)nn3)cc2)[C@H](O)[C@H](C)O1
Output: 4600

Source: ChEMBL document CHEMBL2021781
